All values here come from ChEMBL document CHEMBL3997821.

MIC reference
System: Staphylococcus aureus
protocolSummary: Antibacterial activity against Staphylococcus aureus MLS16 MTCC 2940 after 24 hrs by well diffusion method
Format: functional
testConditions: MLS16 MTCC 2940, 24 h
// note: answer is a bare numeric in µg/mL

Field: example entries. Status: answers known.
# molecule, measureUnit, observed
records = [
    ("O=C(O)c1cn(C2CC2)c2cc(N3CCNCC3)c(F)cc2c1=O", "µg/mL", 0.9),
    ("Cc1ccc(N2C=Nc3c(c(=O)n(C)c(=O)n3C)C2c2cn(-c3ccccc3)nc2-c2cccs2)cc1 (stereo unspecified)", "µg/mL", 15.6),
]

Next:
Enquiry: Quick one: MIC of Cn1c2c(c(=O)n(C)c1=O)C(c1cn(-c3ccccc3)nc1-c1ccccc1)N(c1ccccc1)C=N2 (stereo unspecified) ?
Return: 15.6

----------
System: Staphylococcus aureus
protocolSummary: Antibacterial activity against Staphylococcus aureus MLS16 MTCC 2940 after 24 hrs by well diffusion method
Format: functional
testConditions: MLS16 MTCC 2940, 24 h
propertyMeasured: MIC

Field: example entries. Status: answers known.
# compound, targetSystem, MIC
records = [
    ("Cn1c2c(c(=O)n(C)c1=O)C(c1cn(-c3ccccc3)nc1-c1cccs1)N(c1cccc([N+](=O)[O-])c1)C=N2 (centres undefined)", "Staphylococcus aureus", "> 125 µg/mL"),
    ("Cn1c2c(c(=O)n(C)c1=O)C(c1cn(-c3ccccc3)nc1-c1ccc([N+](=O)[O-])cc1)N(c1cccc([N+](=O)[O-])c1)C=N2 (centres undefined)", "Staphylococcus aureus", "> 125 µg/mL"),
]

Enquiry: Quick one: MIC of Cn1c2c(c(=O)n(C)c1=O)C(c1cn(-c3ccccc3)nc1-c1ccccc1)N(c1ccc(Cl)cc1)C=N2 (centres undefined) ?
Return: > 125 µg/mL

Enquiry: Quick one: MIC of Cc1ccc(N2C=Nc3c(c(=O)n(C)c(=O)n3C)C2c2cn(-c3ccccc3)nc2-c2ccc(Cl)cc2)cc1 (centres undefined) ?
Return: > 125 µg/mL

----------
MIC reference
Tested on: Staphylococcus aureus
protocolSummary: Antibacterial activity against Staphylococcus aureus MLS16 MTCC 2940 after 24 hrs by well diffusion method
Assay type: functional
testConditions: MLS16 MTCC 2940, 24 h

Field: example entries. Status: answers known.
# compound, MIC
measured = [
    ("Cc1ccc(N2C=Nc3c(c(=O)n(C)c(=O)n3C)C2c2cn(-c3ccccc3)nc2-c2ccccc2)cc1 (stereo not drawn)", "> 125 µg/mL"),
    ("Cn1c2c(c(=O)n(C)c1=O)C(c1cn(-c3ccccc3)nc1-c1ccc([N+](=O)[O-])cc1)N(c1ccccc1)C=N2 (stereo not drawn)", "> 125 µg/mL"),
]

Enquiry: # value lookup — system Staphylococcus aureus, readout MIC, item COc1ccc(N2C=Nc3c(c(=O)n(C)c(=O)n3C)C2c2cn(-c3ccccc3)nc2-c2ccc(C)cc2)cc1 (stereo not drawn)
Return: > 125 µg/mL
